- assay.system: T1, CD3 on monkey T cells (monkey splenocytes) (monkey)
- T1 construct: whole, on cells; The target is printed as 'monkey T cells'
- experimental.details: flow cytometry on monkey splenocytes, 1 µg antibody per 10^6 cells in 100 µl, PE anti-human IgG detection
quantity.measured: Mean : Comp-PE-A

F15 (antibody, human IgG1, lambda, L234A L235A, V domains shown, humanized SP34 IgG1, lambda) VH: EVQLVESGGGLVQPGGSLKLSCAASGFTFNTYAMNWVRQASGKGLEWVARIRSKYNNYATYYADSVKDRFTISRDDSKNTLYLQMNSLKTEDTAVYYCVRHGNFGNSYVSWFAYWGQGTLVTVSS VL: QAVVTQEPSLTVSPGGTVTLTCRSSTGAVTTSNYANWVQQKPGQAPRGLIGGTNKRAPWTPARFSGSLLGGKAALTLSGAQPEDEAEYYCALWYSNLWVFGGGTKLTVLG; 14700
B08 (antibody, human IgG1, lambda, L234A L235A, V domains shown, humanized SP34 IgG1, lambda; also called B8) VH: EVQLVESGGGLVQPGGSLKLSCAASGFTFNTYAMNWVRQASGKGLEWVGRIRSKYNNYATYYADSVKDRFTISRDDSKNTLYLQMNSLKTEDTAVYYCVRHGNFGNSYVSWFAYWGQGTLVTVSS VL: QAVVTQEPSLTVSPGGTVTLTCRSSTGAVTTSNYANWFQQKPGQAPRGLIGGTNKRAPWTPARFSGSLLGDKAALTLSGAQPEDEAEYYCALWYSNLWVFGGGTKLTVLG; 4590

Source listed as patent US20200317779A1.
